Attribution: ChEMBL document CHEMBL3124843

Kindly supply the reported pIC50 values for the records listed here.
Test system: BJ
Assay: Cytostatic activity against human BJ cells after 72 hrs by MTT assay
Type: ADME, cell-based
pIC50: −log10 of the molar value.

Recorded pIC50 for "Nc1nc(N)c2c(-c3ccco3)cn([C@@H]3O[C@H](CO)[C@@H](O)[C@H]3O)c2n1" , please?
< 4.00

Recorded pIC50 for "CNc1ncnc2c1c(-c1cc3ccccc3o1)cn2[C@@H]1O[C@H](CO)[C@@H](O)[C@H]1O" , please?
4.12

Recorded pIC50 for "Nc1nc2c(c(-c3cc4ccccc4o3)cn2[C@@H]2O[C@H](CO)[C@@H](O)[C@H]2O)c(=O)[nH]1" , please?
< 4.00

Recorded pIC50 for "COc1ncnc2c1ccn2[C@@H]1O[C@H](CO)[C@@H](O)[C@H]1O" , please?
< 4.00
